Experiment: Solubility of Compound 1 in various solvents
Format: physicochemical
Details: Ethanol, 50 °C, organic solvent or mixture; read-out: Solubility at 50° C.
Protocol: Solubility of >10 mg/mL was only observed in DMSO, NMP and MeOH:DCM 1:3 at 50° C.
Measure Name: solubility

compound="O=C(NCc1ncn2ccc(Cl)c(F)c12)c1cn(Cc2cn3cc(C4CC4)ccc3n2)nn1 [Compound 1]" measured_result="< 10000 µg/mL"

---

test: Solubility of Compound 1 in various solvents; assay type: physicochemical; conditions: Toluene, 50 °C, organic solvent or mixture; read-out: Solubility at 50° C.
Measure Name: solubility

compound="O=C(NCc1ncn2ccc(Cl)c(F)c12)c1cn(Cc2cn3cc(C4CC4)ccc3n2)nn1 [Compound 1]" measured_result="< 10000 µg/mL"

---

Test: Intrinsic Dissolution Rate (IDR), Sirius inForm
Format: physicochemical
Conditions: pH 2.0, 37° C., average
Procedure: About 40 mg of the sample was compressed in a 6 mm disc recess, under 100 kg for 2 minutes, with greaseproof paper on the compression base, to form nondisintegrating discs. The discs were then plugged with a bung so that only one surface was exposed to the media during analysis and transferred to the Sirius inForm dissolution apparatus. […] The IDR was calculated based on the surface area of the 3/6/8 mm disc recess used (28.3 mm2 surface area). […]
Measure Name: IDR Sector 1 average (pH 2.0) (μg/min/cm^2)

molecule=O=C(NCc1ncn2ccc(Cl)c(F)c12)c1cn(Cc2cn3cc(C4CC4)ccc3n2)nn1.O=C(O)CCC(=O)O measured_result=255.5
molecule=O=C(NCc1ncn2ccc(Cl)c(F)c12)c1cn(Cc2cn3cc(C4CC4)ccc3n2)nn1.O=P(O)(O)O measured_result=404.1
molecule="O=C(NCc1ncn2ccc(Cl)c(F)c12)c1cn(Cc2cn3cc(C4CC4)ccc3n2)nn1 [Compound 1 Form 1]" measured_result=104.8
molecule="O=C(NCc1ncn2ccc(Cl)c(F)c12)c1cn(Cc2cn3cc(C4CC4)ccc3n2)nn1 [Compound 1 Form 2]" measured_result=290.8
molecule=O=C(NCc1ncn2ccc(Cl)c(F)c12)c1cn(Cc2cn3cc(C4CC4)ccc3n2)nn1.O=C(O)/C=C/C(=O)O measured_result=78.3
molecule=O=C(NCc1ncn2ccc(Cl)c(F)c12)c1cn(Cc2cn3cc(C4CC4)ccc3n2)nn1.O=C(O)C(=O)O measured_result=866.8
molecule=O=C(NCc1ncn2ccc(Cl)c(F)c12)c1cn(Cc2cn3cc(C4CC4)ccc3n2)nn1.O=C(O)C[C@H](O)C(=O)O measured_result=1791
molecule=O=C(NCc1ncn2ccc(Cl)c(F)c12)c1cn(Cc2cn3cc(C4CC4)ccc3n2)nn1.O=C(O)C(O)C(O)C(=O)O measured_result=656.4

---

experiment: Solubility of Compound 1 in various solvents; format: physicochemical; settings: Acetone:H2O 9:1, 50 °C, organic solvent or mixture; read-out: Solubility at 50° C.
Measure Name: solubility

molecule="O=C(NCc1ncn2ccc(Cl)c(F)c12)c1cn(Cc2cn3cc(C4CC4)ccc3n2)nn1 [Compound 1]" measure_name=solubility measured_result="< 10000 µg/mL"

---

Assay: Solubility of Compound 1 in various solvents
Assay type: physicochemical
Settings: t-BuOH, 50 °C, organic solvent or mixture; read-out: Solubility at 50° C.
Procedure: Solubility of >10 mg/mL was only observed in DMSO, NMP and MeOH:DCM 1:3 at 50° C.
Measure Name: solubility

query_smiles=O=C(NCc1ncn2ccc(Cl)c(F)c12)c1cn(Cc2cn3cc(C4CC4)ccc3n2)nn1 measured_result="< 10000 µg/mL"

---

assay: Storage for one week at 40° C./75% RH and 25° C./97% RH, XRPD; assay type: physicochemical; conditions: one week (7 days); scaled-up / characterised material
Measure Name: Storage 40° C./75% RH, XRPD

compound="O=C(NCc1ncn2ccc(Cl)c(F)c12)c1cn(Cc2cn3cc(C4CC4)ccc3n2)nn1.O=C(O)C(=O)O [Compound 6 Pattern 1]" measure_name="Storage 40° C./75% RH, XRPD" measured_result="unchanged by XRPD"
compound="O=C(NCc1ncn2ccc(Cl)c(F)c12)c1cn(Cc2cn3cc(C4CC4)ccc3n2)nn1.O=C(O)CCC(=O)O [Compound 4]" measure_name="Storage 40° C./75% RH, XRPD" measured_result="unchanged by XRPD"
compound="O=C(NCc1ncn2ccc(Cl)c(F)c12)c1cn(Cc2cn3cc(C4CC4)ccc3n2)nn1.O=C(O)C(=O)O [Compound 6 Pattern 4]" measure_name="Storage 40° C./75% RH, XRPD" measured_result="unchanged by XRPD"

---

assay: Solubility of Compound 1 in various solvents; assay type: physicochemical; details: t-BuOH:H2O 1:1, 50 °C, aqueous with cosolvent or surfactant or cyclodextrin; read-out: Solubility at 50° C.
Measure Name: solubility

compound="O=C(NCc1ncn2ccc(Cl)c(F)c12)c1cn(Cc2cn3cc(C4CC4)ccc3n2)nn1 [Compound 1]" measure_name=solubility measured_result="< 10000 µg/mL"

---

assay: Solubility of Compound 1 in various solvents; type: physicochemical; conditions: 25 °C, organic solvent or mixture; all solvents assessed; Compound 1 as synthesized in Example 1; read-out: solubility at 25° C.
Measure Name: solubility

molecule="O=C(NCc1ncn2ccc(Cl)c(F)c12)c1cn(Cc2cn3cc(C4CC4)ccc3n2)nn1 [Compound 1]" measured_result="< 10000 µg/mL"

---

assay: Solubility of Compound 1 in various solvents; type: physicochemical; conditions: DCM, 50 °C, organic solvent or mixture; read-out: Solubility at 50° C.
Measure Name: solubility

query_smiles=O=C(NCc1ncn2ccc(Cl)c(F)c12)c1cn(Cc2cn3cc(C4CC4)ccc3n2)nn1 measured_result="< 10000 µg/mL"

---

test: Storage for one week at 40° C./75% RH and 25° C./97% RH, XRPD; assay type: physicochemical; conditions: one week (7 days); scaled-up / characterised material
Measure Name: Storage 25° C./97% RH, XRPD

compound="O=C(NCc1ncn2ccc(Cl)c(F)c12)c1cn(Cc2cn3cc(C4CC4)ccc3n2)nn1.O=C(O)C(=O)O [Compound 6 Pattern 1]" measure_name="Storage 25° C./97% RH, XRPD" measured_result="unchanged by XRPD"
compound=O=C(NCc1ncn2ccc(Cl)c(F)c12)c1cn(Cc2cn3cc(C4CC4)ccc3n2)nn1.O=C(O)CCC(=O)O measure_name="Storage 25° C./97% RH, XRPD" measured_result="unchanged by XRPD"
compound=O=C(NCc1ncn2ccc(Cl)c(F)c12)c1cn(Cc2cn3cc(C4CC4)ccc3n2)nn1.O=P(O)(O)O measure_name="Storage 25° C./97% RH, XRPD" measured_result="unchanged by XRPD"

---

assay: Solubility of Compound 1 in various solvents; format: physicochemical; settings: IPA, 50 °C, organic solvent or mixture; read-out: Solubility at 50° C.
Measure Name: solubility

query_smiles=O=C(NCc1ncn2ccc(Cl)c(F)c12)c1cn(Cc2cn3cc(C4CC4)ccc3n2)nn1 measured_result="< 10000 µg/mL"

---

experiment: Solubility of Compound 1 in various solvents; format: physicochemical; conditions: Ethyl acetate, 50 °C, organic solvent or mixture; read-out: Solubility at 50° C.
Measure Name: solubility

compound="O=C(NCc1ncn2ccc(Cl)c(F)c12)c1cn(Cc2cn3cc(C4CC4)ccc3n2)nn1 [Compound 1]" measured_result="< 10000 µg/mL"

---

assay: Storage for one week at 40° C./75% RH and 25° C./97% RH, XRPD; type: physicochemical; details: one week (7 days); scaled-up / characterised material
Measure Name: Storage 40° C./75% RH, XRPD

query_smiles=O=C(NCc1ncn2ccc(Cl)c(F)c12)c1cn(Cc2cn3cc(C4CC4)ccc3n2)nn1.O=C(O)/C=C/C(=O)O measure_name="Storage 40° C./75% RH, XRPD" measured_result="unchanged by XRPD"
query_smiles=O=C(NCc1ncn2ccc(Cl)c(F)c12)c1cn(Cc2cn3cc(C4CC4)ccc3n2)nn1.O=P(O)(O)O measure_name="Storage 40° C./75% RH, XRPD" measured_result="unchanged by XRPD"
query_smiles=O=C(NCc1ncn2ccc(Cl)c(F)c12)c1cn(Cc2cn3cc(C4CC4)ccc3n2)nn1.O=C(O)C(O)C(O)C(=O)O measure_name="Storage 40° C./75% RH, XRPD" measured_result="unchanged by XRPD"
query_smiles=O=C(NCc1ncn2ccc(Cl)c(F)c12)c1cn(Cc2cn3cc(C4CC4)ccc3n2)nn1.O=C(O)C[C@H](O)C(=O)O measure_name="Storage 40° C./75% RH, XRPD" measured_result="unchanged by XRPD"

---

test: Gravimetric vapour sorption (GVS) analysis; format: physicochemical; conditions: change of solid form after GVS
Measure Name: XRPD post GVS analysis

query_smiles=O=C(NCc1ncn2ccc(Cl)c(F)c12)c1cn(Cc2cn3cc(C4CC4)ccc3n2)nn1.O=C(O)CCC(=O)O measured_result="no observed change"
query_smiles=O=C(NCc1ncn2ccc(Cl)c(F)c12)c1cn(Cc2cn3cc(C4CC4)ccc3n2)nn1.O=P(O)(O)O measured_result="no observed change"
